Tested on: NCI-H226 lung
method: NCI tumour cell line growth inhibition, 48 h; in the data active = GI50 below about 0.43 µM; inactive = the rest
Possible outcomes: active, inactive

1. Cc1ccc2c(c1)Sc1c(ccc3ccccc13)N2; inactive
2. O=C1Nc2ccccc2C1(c1ccc(O)cc1)c1ccc(O)cc1; inactive
3. Cc1ccc(-c2nc3nc(-c4ccccc4)nc(N4CCCNCC4)c3o2)cc1; inactive
4. O=C(Nc1ccc(-c2nc(N3CCOCC3)c3cccn3n2)cc1)Nc1cccnc1; active
5. COc1cc2ncn(-c3cc(OCc4cccs4)c(C(N)=O)s3)c2cc1OC; inactive

----------
Test system: HCC-2998 colon
method: NCI tumour cell line growth inhibition, 48 h; in the data active = GI50 below about 0.43 µM; inactive = the rest
Possible outcomes: active, inactive

1. C[N+]1=C(/C=C/c2ccc(O)c3ncccc23)C(C)(C)c2ccccc21; inactive
2. NC(=O)NS(=O)(=O)c1ccc(N2N=C(C(F)(F)F)CC2c2cc(C(F)(F)F)cc(C(F)(F)F)c2)cc1 (stereo unspecified); inactive
3. COc1cc2cc(Oc3ccc(NC(=O)Nc4ccc(Cl)c(C(F)(F)F)c4)cc3)c(C)nc2cc1OCCN1CCOCC1; inactive
4. Cc1ccc(-c2nc3nc(-c4ccccc4)nc(N4CCCNCC4)c3o2)cc1; inactive
5. Cc1ccc(C(=O)N(CCCN)C(c2oc3cc(Cl)ccc3c(=O)c2Cc2ccccc2)C(C)C)cc1 (stereo unspecified); active
6. CCCn1c(=S)sc2c1nc(C)n1c(Nc3ccccc3)nnc21; inactive
7. CCCCCCCC(=O)OCC/C=C/C1OC1C1OC(=O)/C=C\C=C\c2nc(oc2C)/C=C(/C)CCC2OC2C1OC(=O)NC(C)=O (stereo unspecified); active
8. OCCCNc1nc(=S)[nH]c2[nH]ncc12; inactive
9. Nc1nccc(-c2c(-c3ccc(F)cc3)ncn2C2CCC(O)CC2)n1 (stereo unspecified); inactive
10. Cc1ccc(C(=O)NC(C)C)cc1-c1ccc(C(=O)NCC2CC2)cc1; inactive
11. COC(=O)Nc1nc2ccc(Oc3ccc(NC(=O)Nc4cc(C(F)(F)F)ccc4F)cc3)cc2s1; inactive

----------
System: U251 CNS
Possible outcomes: 1.0 (active), 0.0 (inactive)

1) Nc1nc2c(nnn2C2CC(O)C(CO)O2)c(=O)[nH]1 (configuration not stated); 0.0
2) O=C1Nc2ccccc2C1(c1ccc(O)cc1)c1ccc(O)cc1; 0.0
3) O=C(CCc1nnc2sc(-c3ccc(Cl)cc3Cl)nn12)c1nc2ccccc2[nH]1; 0.0
4) Cc1cc2c(cc1Cl)SC1=NN(C)S(=O)N1S2(=O)=O (configuration not stated); 0.0
5) COc1ccc2c(c1)CCCN2c1c2ccccc2nc2ccccc12; 1.0
6) O=C(O)/C=C(\c1nc2ccc([N+](=O)[O-])cc2[nH]1)c1cc(Cl)ccc1O; 0.0
7) CS(=O)(=O)CCNCc1ccc(-c2ccc3ncnc(Nc4ccc(OCc5ccccc5)cc4)c3c2)o1; 0.0

----------
System: K-562 leukemia
method: NCI tumour cell line growth inhibition, 48 h; in the data active = GI50 below about 0.43 µM; inactive = the rest
Possible outcomes: 1 = active, 0 = inactive

1) CS(=O)(=O)c1ccc(-n2nc(C(F)(F)F)cc2OC2CCCC2)cc1; 0
2) N#CC(C#N)=C1Nc2ccccc2S1; 0
3) O=C(O)/C=C(\c1nc2ccc([N+](=O)[O-])cc2[nH]1)c1cc(Cl)ccc1O; 0
4) COc1ccc2c(c1)C(=O)c1c-2n(CCCn2ccnc2)c(=O)c2cc([N+](=O)[O-])ccc12; 1
5) CCCCCCCCn1ccc2cc(NC(=O)Cn3cc(CN4CCCC4)nn3)ccc21; 0
6) CCC[CH2][Sn]1([CH2]CCC)[O]C(=O)CN=Cc2c(ccc3ccccc23)[O]1; 1
7) Cc1cc(-c2cnn3c(NCC4CC(C)(O)C4)cc(Oc4cccnc4)nc23)ccc1C(=O)NC1CC1 (stereo not given); 0
8) COC(=O)Nc1nc2ccc(Oc3ccc(NC(=O)Nc4cc(C(F)(F)F)ccc4F)cc3)cc2s1; 1
9) O=C1CCC(N2C(=O)c3ccccc3C2=O)C(=O)N1CO (stereo not given); 0
10) CCOC1Oc2ccc(C)cc2C(=O)/C1=C\Nc1ccc(C(N)=O)cc1 (stereo not given); 0
11) CCCn1c(=S)sc2c1nc(C)n1c(Nc3ccccc3)nnc21; 0
12) O=C(Nc1ccc(-c2nc(N3CCOCC3)c3cccn3n2)cc1)Nc1cccnc1; 1
13) COc1cc2ncn(-c3cc(OCc4cccs4)c(C(N)=O)s3)c2cc1OC; 0
14) CCCCCCCC(=O)OCC/C=C/C1OC1C1OC(=O)/C=C\C=C\c2nc(oc2C)/C=C(/C)CCC2OC2C1OC(=O)NC(C)=O (stereo not given); 1
15) O=C(O)CCNC1CCCCC1; 0

----------
System: HOP-62 NSCLC
method: NCI tumour cell line growth inhibition, 48 h
metric: TGI

1) N#CC12CNCC1CN=N2 (stereo not drawn); > 100 µM
2) Oc1c2cc(Cl)cc1COCc1cc(Cl)cc(c1O)COCc1cc(Cl)cc(c1O)COC2; > 100 µM
3) O=C1NC(=O)C(CCC(=O)c2ccc3ccccc3c2)C(=O)N1; > 100 µM
4) O=c1cc(-c2ccccc2)oc2cc(OC/C(=N/O)c3ccccc3)ccc12; > 50 µM
5) CC1(C)C2CCC(CN)(C2)C1N (stereo not drawn); > 100 µM
6) CCCCCCCC(=O)OCC/C=C/C1OC1C1OC(=O)/C=C\C=C\c2nc(oc2C)/C=C(/C)CCC2OC2C1OC(=O)NC(C)=O (stereo not drawn); 0.381 µM
7) O=C(O)C1CCCN(CCc2c[nH]c3ccccc23)C1 (stereo not drawn); > 100 µM
8) O=C1CSSCC(=O)Nc2ccccc2N1; > 100 µM
9) O=C(CCc1nnc2sc(-c3ccc(Cl)cc3Cl)nn12)c1nc2ccccc2[nH]1; 2.12 µM
10) COc1ccc2c(c1)[n+](=O)c(C(=O)C/C(=N/OCCCc1ccccc1)C(=O)NC13CC4CC(CC(C4)C1)C3)c(C)n2[O-]; > 100 µM
11) O=C(CCN(C(=O)O)S(=O)(=O)c1ccc(NC(=O)c2ccccc2)cc1)NC1CCCCC1; > 100 µM
12) CCOC(=O)C1(Cc2ccccc2)C=CN(C(=O)c2ccccc2)C=C1; > 100 µM
13) COC(=O)c1cc(C)ccc1C1CN=NC12Cc1ccc(C)cc1C2=O (stereo not drawn); > 100 µM
14) O=C(O)CCC(=O)Nc1ccc2ccccc2c1; > 100 µM
15) CCN(CC)CCn1nc(N)c2nc3ccccc3nc21; > 100 µM
16) CCCCCCCC[C@@H](O)CC(=O)N[C@@H](CC(N)=O)C(=O)N[C@@H](CCC(N)=O)C(=O)N[C@@H](CC(=O)c1cc(C)cc(O)c1C(=O)c1c(O)cccc1O)CC(C)C; 4.92 µM
17) O/N=C/c1ncccc1C1OCCO1; > 100 µM
18) Cc1cc2cc3c(cc2c(-c2ccc([N+](=O)[O-])cc2)n1)OCO3; 40 µM
19) Cc1cc2c(cc1C(=O)CCC(=O)O)CC1(C2)Cc2cc(C)c(C(=O)CCC(=O)O)cc2C1; > 100 µM
20) Cc1cc(Cl)cc2c1NC(=O)C2(O)CC(=O)c1ccco1 (stereo not drawn); > 100 µM
21) O=P1(O)c2ccccc2CCc2ccccc21; > 100 µM
22) CC/C=C\C[C@@H](O)C/C=C1/C(=O)C=C[C@H]1C/C=C\CCCC(=O)OC; 9.8 µM
23) COc1ccc(CC2CCc3nc(N)nc(N)c3C2)cc1OC (stereo not drawn); > 100 µM
24) Clc1ccccc1-c1nc2ccc(C34CC5CC(CC(C5)C3)C4)cc2[nH]1; 34.9 µM
25) O=C(O)COCC(=O)N(CCOCCN(Cc1ccccc1)C(=O)COCC(=O)O)Cc1ccccc1; > 100 µM
26) N#CC(C#N)=C1Nc2ccccc2S1; > 100 µM
27) Ic1ccc2c(c1)N(c1ccccc1)c1cc(N=c3ccc4nc5ccc(I)cc5n(-c5ccccc5)c-4c3)ccc1N2; > 100 µM
28) COc1ccc(C(=O)c2sc(N(C)C)nc2-c2ccccc2)cc1; > 100 µM
29) CC(C)(C)OC(=O)CN1C(=O)CC1CC(=O)c1ccccc1 (stereo not drawn); 34.2 µM
30) CCCn1c(=S)sc2c1nc(C)n1c(Nc3ccccc3)nnc21; 23.9 µM
31) C[N+]1=C(/C=C/c2ccc(O)c3ncccc23)C(C)(C)c2ccccc21; 14.5 µM
32) Cc1cc(N(CCC#N)CCC#N)ccc1/C=C1\N=C(c2cc([N+](=O)[O-])ccc2Cl)N(c2cccc(Cl)c2)C1=O; > 100 µM
33) Cc1ccc(C(=O)NC(C)C)cc1-c1ccc(C(=O)NCC2CC2)cc1; > 25 µM
34) COc1cc(/C=N\N(C)C)cc(/C=N/N(C)C)c1O; > 100 µM
35) NC(=O)COC(=O)c1c(Cl)nc2sccn12; > 100 µM
36) C=C1[C@H](OC(C)=O)[C@H]2[C@@H](OC(C)=O)[C@@H](C)C[C@]2(C)C(=O)[C@H](C)/C=C/C(C)(C)C(=O)[C@H](OCC(C)C)[C@H]1OC(C)=O; > 25 µM
37) COc1ccccc1N(CN1C(=O)CCC1C(=O)O)C(C)=O (stereo not drawn); > 100 µM
38) O=C(O)C(=Cc1ccc(-c2ccccc2)cc1)C(=O)O; 22.5 µM
39) O=C(O)/C=C(\c1nc2ccc([N+](=O)[O-])cc2[nH]1)c1cc(Cl)ccc1O; 28.3 µM
40) C[C@]12CC[C@H](OC(=O)Cc3ccc(N(CCCl)CCCl)cc3)CC1=CC[C@@H]1[C@@H]2CC[C@]2(C)C(=O)CC[C@@H]12; > 100 µM
41) CCOC(=S)SSSC(=S)OCC; > 100 µM
42) CCC(C)(C)C1CCC2c3c([nH]c4ccccc34)C3C(=O)N(c4ccc(OC)cc4)C(=O)C3C2C1 (stereo not drawn); 23.2 µM
43) CC(SC(=S)N1CCOCC1)c1cc2oc(=O)n(C)c2cc1Cl (stereo not drawn); > 100 µM
